Biological target: human adenosine A1 receptor (hA1R) (Homo sapiens, UniProt P30542)
Construct: Steve Hill (University of Nottingham, UK); host or cells: CHO cells stably expressing hA1R; membrane preparation
Sequence (P30542 whole entry): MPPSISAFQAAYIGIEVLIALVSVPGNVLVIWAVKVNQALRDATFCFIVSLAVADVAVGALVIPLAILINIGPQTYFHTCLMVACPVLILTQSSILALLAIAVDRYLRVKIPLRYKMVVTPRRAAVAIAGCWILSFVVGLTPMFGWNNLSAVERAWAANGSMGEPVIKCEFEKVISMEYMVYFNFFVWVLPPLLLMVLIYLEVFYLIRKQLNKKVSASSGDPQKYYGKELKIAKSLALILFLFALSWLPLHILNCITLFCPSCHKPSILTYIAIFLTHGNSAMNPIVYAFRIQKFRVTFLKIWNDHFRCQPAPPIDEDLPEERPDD
Test: Competition association with [3H]-DPCPX, filtration assay
Type: binding
Conditions: 1/k off, 28 °C, 1 mM GTP present for LUF5834, CCPA, NECA
outcomeMeasure: Filtration assay RT (min)

Known Filtration assay RT results, listed for orientation:
N#Cc1c(N)nc(SCc2ncc[nH]2)c(C#N)c1-c1ccc(O)cc1 [LUF5834]; 4.4
CCCn1c(=O)c2[nH]c(C3CCCC3)nc2n(CCCOC(=O)c2ccc(S(=O)(=O)F)cc2)c1=O [FSCPX]; 167

I. CCCn1c(=O)c2[nH]c(C3CCCC3)nc2n(CCC)c1=O [DPCPX, 1,3-Dipropyl-8-cyclopentyl-xanthine]
II. OC[C@H]1O[C@@H](n2cnc3c(NC4CCCC4)nc(Cl)nc32)[C@H](O)[C@@H]1O [CCPA, 2-chloro-N^6-cyclopentyladenosine]
input: Hi there, can you help? I need to know whether I or II has lower measured Filtration assay RT. Write down the label attached to your selection.
output: II

Source: paper PMC4749533
